# test: clinical
# measurement-context: female, human, in vivo, iv, 1 mg
# Excerpt: In the following example, the inventors sought to compare the intranasal (“IN”) administration of leuprolide using the methods and compositions of the invention with prior art methods of administration (subcutaneous (“SQ”) and intravenous (“IV”)).
recorded-metric: AUC (ng·h/mL)
Express your answer in ng·h/mL, writing the number without its unit.

Ask: Quick one: AUC for CC(=O)O.CCNC(=O)[C@@H]1CCCN1C(=O)[C@H](CCCNC(=N)N)NC(=O)[C@H](CC(C)C)NC(=O)[C@@H](CC(C)C)NC(=O)[C@H](Cc1ccc(O)cc1)NC(=O)[C@H](CO)NC(=O)[C@H](Cc1c[nH]c2ccccc12)NC(=O)[C@H](Cc1c[nH]cn1)NC(=O)[C@@H]1CCC(=O)N1 [leuprolide] ?
Reply: 120
